Values were extracted from patent US20230331848A1.

In this section we review reported kon values for a set of binders.
- assay.system: T1, human PD-1-his protein (Cat#:PD1-H5221, Acro biosystems Inc.) (human, UniProt Q15116 25-167)
- T1 construct: not shown: his tag
- T1 sequence (Q15116 25-167 limits assumed): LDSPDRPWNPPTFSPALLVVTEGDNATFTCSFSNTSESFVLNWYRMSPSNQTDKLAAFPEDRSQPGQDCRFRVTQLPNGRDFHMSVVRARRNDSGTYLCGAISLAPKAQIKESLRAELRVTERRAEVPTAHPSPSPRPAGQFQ
- procedure.summary: BLI (Octet RED96), supernatant antibody captured on AHC sensor, human PD-1-his in solution, 1:1 fit
Answer format: numeric, M⁻¹ s⁻¹ implied, no suffix.

Ask | Can you look up the measured kon of humanized antibody huE1A9C8A7-V1 (antibody, human IgG4 S228P, kappa, V domains shown, Human IgG4/kappa) VH: QVQLVQSGAEVVKPGASVKISCKASGYTFSDYVMHWMRQAPGQSLEWIGVISTYHIPAVYNQKFKGKATMTVDKSTSTVYLELSSLRSEDTAVYYCAREVYGDSYYFDVWGQGTTVTVSS VL: DIVMTQTPLSLPVTPGEPASISCRSSQSIVHSNGNTYLEWYLQKPGQSPQLLIYKVSNRFSGVPDRFSGSGSGTDFTLKISRVEAEDVGVYYCFQGSHVPYTFGGGTKVEIKR for me?
Reply | 206000

Ask | Similarly, humanized antibody huE1A9C8A7-V2 (antibody, human IgG4 S228P, kappa, V domains shown, Human IgG4/kappa) VH: QVQLVQSGAEVVKPGASVKISCKASGYTFTDYVMHWMRQAPGQSLEWIGVISTYHIPAVYNQKFKGKATMTVDKSTSTVYLELSSLRSEDTAVYYCAREVYGDSYYFDVWGQGTTVTVSS VL: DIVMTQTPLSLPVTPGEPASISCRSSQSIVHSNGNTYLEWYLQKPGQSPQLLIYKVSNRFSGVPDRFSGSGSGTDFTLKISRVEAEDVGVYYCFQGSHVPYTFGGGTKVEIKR ?
Reply | 197000

Ask | Similarly, humanized antibody huE1A9C8A7-V9 (antibody, human IgG4 S228P, kappa, V domains shown, Human IgG4/kappa) VH: QVQLVQSGAEVVKPGASVKISCKASGYTFTDYVMHWVRQAPGQSLEWIGVISTYHIPAVYNQKFKGRATMTVDTSTSTVYLELSSLRSEDTAVYYCAREVYGDSYYFDVWGQGTTVTVSS VL: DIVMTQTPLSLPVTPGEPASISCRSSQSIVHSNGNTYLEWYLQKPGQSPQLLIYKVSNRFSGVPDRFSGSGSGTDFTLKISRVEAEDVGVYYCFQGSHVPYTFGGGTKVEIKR ?
Reply | 253000
